assay: In vivo rat cassette PK; conditions: rat, in vivo, intravenous, 0.25 mg/kg
measured.metric: clearance (mL/min/kg)

- smiles: "N#Cc1cc(Cn2c(N3CCCC3)nc3ccccc32)ccc1F"
  clearance, mL/min/kg: 61.3
- smiles: "CCCNc1nc2ccccc2n1Cc1ccc(Cl)cc1"
  clearance, mL/min/kg: 57.8

====

assay: Mouse liver microsome stability; type: in vitro ADME; details: liver microsomes
measured.metric: mCLHEP (mL/min/kg)

- smiles: "Clc1ccc(Cn2c(N3CCCC3)nc3ccccc32)cc1"
  quantity.unit: "mL/min/kg"
  recorded.number: 88.2
- smiles: "Fc1cc(Cl)ccc1Cn1c(N2CCCC2)nc2ccccc21"
  quantity.unit: "mL/min/kg"
  recorded.number: 87.6
- smiles: "N#Cc1cc(Cn2c(N3CCCC3)nc3ccccc32)ccc1F"
  quantity.unit: "mL/min/kg"
  recorded.number: 72.5
- smiles: "CCCNc1nc2ccccc2n1Cc1ccccc1"
  quantity.unit: "mL/min/kg"
  recorded.number: 80.9
- smiles: "c1ccc(Cn2c(N3CCCC3)nc3ccccc32)cc1"
  quantity.unit: "mL/min/kg"
  recorded.number: 77.0
- smiles: "CCCNc1nc2ccccc2n1Cc1ccc(Cl)cc1"
  quantity.unit: "mL/min/kg"
  recorded.number: 81.6
